Reference source for all entries: PubChem BioAssay (NCI)

- assay: NCI Yeast Anticancer Drug Screen. Data for the wt2 strain (AID 169);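 further: 0% = growth of vehicle-treated yeast cultures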
- measurement-parameters: S. cerevisiae wt2 strain growth inhibition; at 1.2 µM; hits give high values
About 79,000 compounds went through this panel and 15% of them were active in at least one assay; those are over-represented in the sample as a whole.
property-label: growth inhibition (%)
Field: numeric (%). Do not append units.

Please review the following examples before continuing.
Cc1nc(-[n+]2nc(-c3ccncc3)nn2-c2ccccc2)sc1C: -2
Cc1c(C(=O)C(=O)c2ccccc2)c(C)c(C(=O)C(=O)c2ccccc2)c(C)c1C(=O)C(=O)c1ccccc1: -3
CCCCCCCCCCCC1=C(O)C(=O)C=C(O)C1=O: 3
COc1cc(C(=O)/C=C/c2ccccc2O)ccc1O: -24
O=[N+]([O-])C(=C(Sc1ccccc1)Sc1ccccc1)C(Cl)=C(Cl)Cl: 1

Value of measured growth inhibition for the entry "O=C(CCCN1CCC2(CC1)CC(=O)N(N1CCCCCC1)C2=O)c1ccc(F)cc1" : 20

Consider "CCC(=O)c1cccc2ccccc12" . Its measured growth inhibition is 1

// field: growth inhibition; key: CCC[CH2][Ge]([CH2]CCC)([CH2]CCC)[O]C(=O)C(OC)c1ccccc1 (stereo not drawn) ; value = -3

Memo: "O=C([O][Sn]([O]C(=O)c1ccccc1)([c]1ccccc1)[c]1ccccc1)c1ccccc1" , reported growth inhibition: 8

growth inhibition measured on "O=CC=C(c1ccccc1)c1ccccc1" = 4

The recorded growth inhibition for CCOC(=O)[C@H]1Nc2ccccc2C2c3ccccc3CC21 (stereo partly drawn) is -31

----------
- assay: NCI Yeast Anticancer Drug Screen. Data for the mlh1 strain (AID 171);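 further: 0% = growth of vehicle-treated control cultures of the same strain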
- measurement-parameters: S. cerevisiae mlh1 strain growth inhibition; at 33.0 µM
The panel holds about 79,000 compounds, 15% with a hit somewhere; the sample as a whole holds those more often. Active and inactive are the calls of the source. Cut-off read from the data, not from the text of the source: active = growth inhibition above about 70%; inactive = the rest.
Pick one and only one: active, inactive

O=c1ssc2ncccc12: active
CCCCCCCCCCCC(=O)N(C)C: inactive
CN(N=O)N1C(=O)SCC(c2ccccc2)(c2ccccc2)C1=O: inactive

[Q] I'd appreciate the recorded outcome for "N#CSc1ccc(S(N)(=O)=O)cc1" from this test.
[A] inactive

[Q] Tell me the recorded outcome of this test for "COc1ccc(OC)c2cc3ccccc3cc12" .
[A] inactive

[Q] Please let me know the test result on file for "CCN(CC)CCN1C(=O)c2cccc3cc(OC)cc(c23)C1=O" .
[A] inactive

[Q] Query: recorded result category for "O=C1C(Nc2ccccc2)=C(Oc2ccccc2)C(=O)c2ccccc21" in this test
[A] inactive

[Q] Outcome? O=C1C2C(C(=O)N1c1ccc(OCc3ccccc3)cc1)C1c3ccccc3C2C2CCCCN21 (stereo unspecified)
[A] inactive

----------
- assay: NCI Yeast Anticancer Drug Screen. Data for the CLN2oe strain (AID 163);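 further: 0% = growth of vehicle-only control cultures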
- measurement-parameters: S. cerevisiae CLN2oe strain, at 3.7 µM, hits give high values
- Method: Growth inhibition of yeast strains with defined genetic alterations is measured as a screen for potential anti-cancer activity. Selected strains with alterations in DNA damage repair or cell cycle control were exposed to compounds and growth inhibition was measured relative to vehicle treated controls. The strain used in this assay is CLN2oe
This is part of a sample that, as a whole, favours compounds with a hit. Of some 79,000 tested, about 15% had one in any assay.
Listing of entries alongside the reported growth inhibition.
Write the answer as a number in %, unit excluded.

# count of solved cases: 3
S=c1[nH]nc(Nc2ccc(Cl)cc2)s1: -7
C/C(=N\O)C1CC2C=C(C#N)C1N(Cc1ccccc1)C2 (stereo unspecified): -14
OC(c1ccc(F)cc1)(c1ccc(F)cc1)C1CC1: -3

molecule "CN(C)Cc1cc(N=Nc2ccc(Cl)cc2)cc(CN(C)C)c1O" , growth inhibition observed: 22

Per the record, "NC(=NCc1ccccc1)N/N=C\c1ccnc2ccccc12" has growth inhibition of -6

Please fill in: growth inhibition reported for "COP(=O)(OC)/C(=C\C1=CN(C(c2ccccc2)(c2ccccc2)c2ccccc2)CN1)NC=O" = 8
